Tested on: Bacillus cereus
Assay: Antibacterial activity against Bacillus cereus at 100 ug/disc after 24 hrs by disc diffusion method
Assay type: functional
Details: read-out: DIZ
Criterion: zone of inhibition at 100 µg/disc meeting or surpassing 20 mm. Met: yes (1). Not met: no (0).

Here are 5 compounds together with their reported answers.
Input: Could you please find out whether CCN1CCN(CC2SC(c3ccc(OC)c(OC)c3)N(c3ccc(Nc4nc(Oc5cc(=O)n(C)c6ccccc56)nc(N(C)C)n4)cc3)C2=O)CC1 (configuration not stated) has zone of inhibition at 100 µg/disc that meets 20 mm or exceeds it?
Output: yes (1)

Input: In plain terms: is recorded zone of inhibition at 100 µg/disc at least 20 mm for O=C(O)c1cn(C2CC2)c2cc(N3CCNCC3)c(F)cc2c1=O ?
Output: yes (1)

Input: Could you tell me if the measured zone of inhibition at 100 µg/disc of CCN1CCN(CC2SC(c3ccc([N+](=O)[O-])cc3)N(c3ccc(Nc4nc(Oc5cc(=O)n(C)c6ccccc56)nc(N(C)C)n4)cc3)C2=O)CC1 (configuration not stated) reaches 20 mm or more?
Output: yes (1)

Input: Entry CCN1CCN(CC2SC(c3cccc(O)c3O)N(c3ccc(Nc4nc(Oc5cc(=O)n(C)c6ccccc56)nc(N(C)C)n4)cc3)C2=O)CC1 (configuration not stated) : is its zone of inhibition at 100 µg/disc no less than 20 mm?
Output: no (0)

Input: Does the reported zone of inhibition at 100 µg/disc for CCN1CCN(CC2SC(c3ccccc3)N(c3ccc(Nc4nc(Oc5cc(=O)n(C)c6ccccc56)nc(N(C)C)n4)cc3)C2=O)CC1 (configuration not stated) fall at or above the 20 mm mark?
Output: no (0)

# next compound below
Input: Entry CCN1CCN(CC2SC(c3ccccc3C(=O)O)N(c3ccc(Nc4nc(Oc5cc(=O)n(C)c6ccccc56)nc(N(C)C)n4)cc3)C2=O)CC1 (configuration not stated) : is its zone of inhibition at 100 µg/disc no less than 20 mm?
Output: yes (1)
